target: UniProt:P49682; assay: FLIPR assay; conditions: CHO-K1 cells expressing the human CXCR3A coupled to Galpha(16); CXCL10 agonist 20 nM; Fluo-4-AM fluorescence; mean values if determined several times
quantity: IC50 (nM)
The answer is to be given in nM; state only the numeric part.

Prompt: Report measured IC50; entry is Cc1cccc2[nH]c(-c3ncsc3N3CCN(C(=O)Cn4ccc5cccnc54)[C@H](C)C3)nc12
Completion: 1

Prompt: Report measured IC50; entry is CN(C)C[C@@H]1CN(c2sc(C(F)(F)F)nc2-c2nc3ccccc3[nH]2)CCN1C(=O)Cn1cnc2cccnc21
Completion: 4

Prompt: Report measured IC50; entry is C[C@@H]1CN(c2scnc2-c2nc3ccccc3[nH]2)CCN1C(=O)Cc1n[nH]c2ccccc12
Completion: 3

Prompt: Report measured IC50; entry is CC(O)c1nc(-c2nc3ccccc3[nH]2)c(N2CCN(C(=O)Cn3ccc4cccnc43)CC2)s1 (racemic)
Completion: 55

Prompt: Report measured IC50; entry is COCCOc1ccc2[nH]c(-c3nc(C(F)(F)F)sc3N3CCN(C(=O)Cn4cnc5cccnc54)[C@H](C)C3)nc2c1
Completion: 5

Prompt: Report measured IC50; entry is O=C(Cc1cccnc1)N1CCN(c2scnc2-c2nc3ccccc3[nH]2)CC1
Completion: 487

Prompt: Report measured IC50; entry is Cc1cccc2ccn(CC(=O)N3CCN(c4scnc4-c4nc5ccccc5[nH]4)CC3)c12
Completion: 2

Prompt: Report measured IC50; entry is C[C@@H]1CN(c2sc(C(F)(F)F)nc2-c2nc3ccccc3[nH]2)CCN1C(=O)Cc1ccccc1-n1nccn1
Completion: 28

Prompt: Report measured IC50; entry is COc1ccc2onc(CC(=O)N3CCN(c4scnc4-c4nc5ccccc5[nH]4)CC3)c2c1
Completion: 314

Prompt: Report measured IC50; entry is C[C@@H]1CN(c2scnc2-c2nc3c(F)c(F)ccc3[nH]2)CCN1C(=O)Cn1ccc2cccnc21
Completion: 1

Prompt: Report measured IC50; entry is CC[C@@H]1CN(c2scnc2-c2nc3ccccc3[nH]2)CCN1C(=O)Cn1cnc2cccnc21
Completion: 4

Prompt: Report measured IC50; entry is C[C@@H]1CN(c2sc(C(F)(F)F)nc2-c2nc3ccccc3[nH]2)CCN1C(=O)CN1C(=O)C(F)(F)c2ccccc21
Completion: 2

---

Molecular target: CXCR3 (Homo sapiens (Human), UniProt P49682)
Sequence (P49682 whole entry): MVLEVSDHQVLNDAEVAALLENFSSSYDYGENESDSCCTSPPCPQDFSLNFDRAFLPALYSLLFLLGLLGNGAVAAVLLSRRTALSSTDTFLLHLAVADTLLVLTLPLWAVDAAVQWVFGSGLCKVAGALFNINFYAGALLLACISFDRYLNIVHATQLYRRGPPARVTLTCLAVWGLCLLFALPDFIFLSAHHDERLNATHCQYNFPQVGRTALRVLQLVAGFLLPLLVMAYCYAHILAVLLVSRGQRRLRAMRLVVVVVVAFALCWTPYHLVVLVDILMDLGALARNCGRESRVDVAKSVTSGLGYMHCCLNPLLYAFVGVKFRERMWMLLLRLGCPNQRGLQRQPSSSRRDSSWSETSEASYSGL
Test: Receptor internalization assay
Assay type: cell-based
Conditions: human whole blood; final CXCL10 concentration 9 nM; 30 min 37° C.; CXCR3 cell surface expression on CD3 positive cells, flow cytometer; read-out: Internalization IC50
Protocol: B): Receptor Internalization Assay: Stock solutions of test compounds are made up at a concentration of 10 mM in DMSO, and serially diluted in PBS containing 0.5% BSA to concentrations required for inhibition dose response curves. Diluted compounds are then mixed with an equal volume of CXCL10 (Peprotech) diluted in PBS. […] After washing the cells with PBS containing 0.5% BSA, the samples are then analyzed in a flow cytometer (FACS Canto II, Becton Dickinson). […]
quantity: IC50 (nM)
The answer is to be given in nM; state only the numeric part.

Prompt: Report measured IC50; entry is O=C(CN1C(=O)CCc2ccccc21)N1CCN(c2scnc2-c2nc3ccccc3[nH]2)CC1 [Example 77]
Completion: 1440

Prompt: Report measured IC50; entry is C[C@@H]1CN(c2sc(C(F)(F)F)nc2-c2nc3ccccc3[nH]2)CCN1C(=O)Cn1cc(C2CCNCC2)cn1 [Example 221]
Completion: 1090

Prompt: Report measured IC50; entry is COC[C@H]1CN(c2scnc2-c2nc3ccccc3[nH]2)CCN1C(=O)Cn1ccc2cccnc21 [Example 19]
Completion: 875
